Hey, just so you know, these numbers are from the MegaScale stability set (Tsuboyama et al. 2023).

B1: EHEE_rd3_0053 (parent)
chain: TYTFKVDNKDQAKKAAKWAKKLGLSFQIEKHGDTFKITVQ

# Variants of: B1
# test_protocol: folding stability dG (cDNA display proteolysis); higher = more stable
# settings: PBS, room temperature
value_type: folding stability dG (kcal/mol)
Unit kcal/mol implied. Number only.

Bench note: what folding stability dG did E29C show?
2.64

Bench note: what folding stability dG did K30E show?
2.04

Bench note: what folding stability dG did T1H show?
2.3

Bench note: what folding stability dG did T3K show?
1.46

Bench note: what folding stability dG did K9H show?
2.25

Bench note: what folding stability dG did F26A show?
1.81

Bench note: what folding stability dG did T38S show?
1.81

Bench note: what folding stability dG did F4G show?
0.271

Bench note: what folding stability dG did L24S show?
0.343

Bench note: what folding stability dG did K13F show?
2.23

Bench note: what folding stability dG did T34P show?
-0.409
